protocol notes: HILIC, Merck SeQuant ZIC-HILIC, 25 °C, 0.25 mL/min; A: water + 16 mM ammonium formate; B: acetonitrile + 0.1% formic acid, pH 3; gradient (min/%B) 0/97 2/97 10/70 15/10 17/10 18/97 25/97
measurement conditions: stereoisomer not certain
Catalogue of LC retention time values
measured endpoint: LC retention time (min)

molecule	measured endpoint	experimental value
O=C(O)C(O)C(O)C(O)C(O)COP(=O)(O)O (configuration not stated) [6-PHOSPHOGLUCONATE]	LC retention time	15.1
O=c1ccc2cc(O)ccc2[nH]1 [2-6-quinolinediol]	LC retention time	2.16
Nc1nc2c(ncn2C2OC(COP(=O)(O)O)C(O)C2O)c(=O)[nH]1 (configuration not stated) [GUANOSINE MONOPHOSPHATE]	LC retention time	14.7
Cc1ncc(CO)c(CN)c1O [PYRIDOXAMINE]	LC retention time	14.6
Cc1ncc(C[n+]2csc(CCO)c2C)c(N)n1 [THIAMINE]	LC retention time	14.3
Nc1nc2nc[nH]c2c(=O)[nH]1 [GUANINE]	LC retention time	10.8
O=C(O)Cc1cnc[nH]1 [4-IMIDAZOLEACETATE]	LC retention time	13.6

Reference source: the RepoRT retention time repository
